tgt: human ETA receptors (Homo sapiens, UniProt P25101)
Construct: endogenous in cells; host or cells: TE 671 cells (ATCC HTB 139), membrane preparation
Sequence (P25101 21-427): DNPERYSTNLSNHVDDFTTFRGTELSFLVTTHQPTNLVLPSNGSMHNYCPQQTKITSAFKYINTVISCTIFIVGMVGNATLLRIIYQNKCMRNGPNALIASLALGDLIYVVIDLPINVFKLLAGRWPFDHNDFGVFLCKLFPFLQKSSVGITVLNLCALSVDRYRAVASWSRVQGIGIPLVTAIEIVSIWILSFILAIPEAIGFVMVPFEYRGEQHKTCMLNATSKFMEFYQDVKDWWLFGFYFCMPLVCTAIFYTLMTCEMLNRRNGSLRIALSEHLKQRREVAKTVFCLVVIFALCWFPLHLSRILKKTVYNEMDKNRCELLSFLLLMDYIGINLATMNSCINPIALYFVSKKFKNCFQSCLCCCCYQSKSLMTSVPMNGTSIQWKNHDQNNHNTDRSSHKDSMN
assay notes: Endothelin binding inhibition, Binding Test #1: competition with 125I-ET-1 for ETA receptors on TE 671 cell membranes
conditions: incubation at 24° C. (values marked †)
pIC50: −log10 of the molar value.
Items are presented alongside their recorded pIC50.

[
  {
    "smiles text": "Cc1noc(NS(=O)(=O)c2ccsc2C(=O)Nc2ccccc2C(=O)O)c1Br",
    "pIC50": 6.68
  },
  {
    "smiles text": "COc1cccc(CC(=O)c2sccc2S(=O)(=O)Nc2onc(C)c2Br)c1",
    "pIC50": 7.52
  },
  {
    "smiles text": "Cc1noc(NS(=O)(=O)c2ccsc2C/C=C/c2ccc3c(c2)OCO3)c1Br",
    "pIC50": 6.85
  },
  {
    "smiles text": "COc1cc(NC(=O)c2sccc2S(=O)(=O)Nc2onc(C)c2Cl)c(C(N)=O)cc1OC",
    "pIC50": 7.96
  },
  {
    "smiles text": "COc1cc(C#N)c(NC(=O)c2sccc2S(=O)(=O)Nc2onc(C)c2Cl)c(OC)c1OC",
    "pIC50": 9.62
  }
]
